Where these numbers come from: patent US20240166642A1

biological target: TPO (produced in insect cells, RSR Ltd) (Homo sapiens (Human), UniProt P07202); assay: TPO activity (IC50), luminol chemiluminescence assay; details: PBS pH7.4, luminol 100 μM, H2O2 50 μM, chemiluminescence recorded after 15 minutes
Sequence (P07202 19-933): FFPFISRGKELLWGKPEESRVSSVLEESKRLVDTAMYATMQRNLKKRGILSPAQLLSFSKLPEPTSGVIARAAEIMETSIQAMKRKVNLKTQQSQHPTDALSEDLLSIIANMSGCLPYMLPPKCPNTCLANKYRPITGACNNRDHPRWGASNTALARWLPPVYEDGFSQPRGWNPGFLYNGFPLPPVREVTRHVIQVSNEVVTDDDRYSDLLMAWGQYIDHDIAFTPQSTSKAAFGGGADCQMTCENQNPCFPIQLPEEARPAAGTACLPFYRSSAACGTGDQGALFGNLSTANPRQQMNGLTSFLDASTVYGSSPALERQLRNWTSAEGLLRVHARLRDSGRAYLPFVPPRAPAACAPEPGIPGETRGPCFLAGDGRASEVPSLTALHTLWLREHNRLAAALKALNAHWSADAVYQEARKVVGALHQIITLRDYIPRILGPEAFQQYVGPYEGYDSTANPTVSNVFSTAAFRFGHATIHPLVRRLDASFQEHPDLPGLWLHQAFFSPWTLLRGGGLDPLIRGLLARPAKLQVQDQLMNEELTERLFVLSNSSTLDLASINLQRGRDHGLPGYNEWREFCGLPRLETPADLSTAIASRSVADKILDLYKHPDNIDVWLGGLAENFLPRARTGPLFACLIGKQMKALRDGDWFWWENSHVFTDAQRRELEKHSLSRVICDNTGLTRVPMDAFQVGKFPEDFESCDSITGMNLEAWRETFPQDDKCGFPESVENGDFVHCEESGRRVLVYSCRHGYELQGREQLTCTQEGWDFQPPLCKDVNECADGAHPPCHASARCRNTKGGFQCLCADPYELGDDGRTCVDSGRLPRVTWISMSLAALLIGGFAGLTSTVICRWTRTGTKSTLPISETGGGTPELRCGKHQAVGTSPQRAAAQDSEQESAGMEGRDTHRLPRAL
Threshold-based label: IC50 under 600 nM gives rule met, IC50 not under 600 nM gives rule not met.

- compound: "O=c1[nH]c(=S)n(Cc2ccc3c(c2)CNC3)c2cc[nH]c12"
  assigned-category: "rule met"
- compound: "O=c1[nH]c(=S)n(Cc2ccc(Cl)cc2C2COCCN2)c2nc[nH]c12 (stereo not shown)"
  assigned-category: "rule not met"
- compound: "O=c1[nH]c(=S)n(Cc2ccccc2C2CCC(C(F)(F)F)CN2)c2cc[nH]c12 (stereo not shown)"
  assigned-category: "rule met"
- compound: "O=c1[nH]c(=S)n(Cc2cccnc2[C@H]2C[C@@H](C(F)(F)F)CCN2)c2cc[nH]c12 (single isomer, unassigned) [Example 16b]"
  assigned-category: "rule not met"
- compound: "O=c1[nH]c(=S)n(Cc2ccccc2[C@H]2C[C@@H](C(F)(F)F)CCN2)c2nc[nH]c12 [Example 13a]"
  assigned-category: "rule not met"
- compound: "O=c1[nH]c(=S)n(Cc2cccc3c2CNCC3)c2cc[nH]c12"
  assigned-category: "rule met"
- compound: "O=c1[nH]c(=S)n(Cc2ccccc2[C@H]2C[C@@H](C(F)F)CCN2)c2cc[nH]c12 (single isomer, unassigned) [Example 19b]"
  assigned-category: "rule met"
- compound: "O=c1[nH]c(=S)n(Cc2ccccc2[C@H]2CCCCN2)c2cc[nH]c12 (single isomer, unassigned) [Example 1a]"
  assigned-category: "rule not met"
- compound: "O=c1[nH]c(=S)n(Cc2ccccc2[C@H]2CNCCO2)c2cc[nH]c12 (single isomer, unassigned)"
  assigned-category: "rule met"
- compound: "O=c1[nH]c(=S)n(Cc2ccccc2[C@H]2C[C@@H](C(F)(F)F)CCN2)c2cc[nH]c12 (single isomer, unassigned) [Example 10b]"
  assigned-category: "rule met"
- compound: "O=c1[nH]c(=S)n(Cc2ccccc2[C@H]2C[C@@H](C(F)(F)F)CCN2)c2cc[nH]c12 (single isomer, unassigned) [Example 10a]"
  assigned-category: "rule not met"
- compound: "O=c1[nH]c(=S)n(Cc2ccccc2[C@H]2CC(F)(F)CCN2)c2cc[nH]c12 (single isomer, unassigned) [Example 12a]"
  assigned-category: "rule not met"
- compound: "O=c1[nH]c(=S)n(Cc2ccc(Cl)cc2[C@H]2CCCCN2)c2cc[nH]c12 (single isomer, unassigned) [Example 2b]"
  assigned-category: "rule met"
- compound: "O=c1[nH]c(=S)n(Cc2ccccc2[C@@H]2CCCCCN2)c2cc[nH]c12 (single isomer, unassigned) [Example 6a]"
  assigned-category: "rule met"
- compound: "O=c1[nH]c(=S)n(Cc2ccccc2[C@H]2CCCCN2)c2cc[nH]c12 (single isomer, unassigned) [Example 1b]"
  assigned-category: "rule not met"
